In this section, each of the compounds is paired with its reported IC50.
Biological target: His-Brd2(60-472) (Homo sapiens (Human))
Sequence (P25440 60-472): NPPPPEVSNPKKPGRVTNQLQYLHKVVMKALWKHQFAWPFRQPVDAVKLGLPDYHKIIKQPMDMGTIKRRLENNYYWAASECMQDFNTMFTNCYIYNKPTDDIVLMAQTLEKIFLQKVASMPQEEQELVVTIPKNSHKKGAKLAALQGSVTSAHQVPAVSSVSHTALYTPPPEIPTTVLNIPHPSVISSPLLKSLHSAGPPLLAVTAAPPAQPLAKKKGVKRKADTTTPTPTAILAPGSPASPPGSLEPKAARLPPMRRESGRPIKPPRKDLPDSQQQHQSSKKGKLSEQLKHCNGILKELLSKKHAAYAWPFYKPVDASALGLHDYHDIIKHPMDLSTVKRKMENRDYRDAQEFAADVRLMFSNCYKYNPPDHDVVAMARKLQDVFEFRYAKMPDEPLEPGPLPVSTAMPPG
Assay: TR-FRET in-vitro binding assay for BRD2
Conditions: biochemical
Value Kind: IC50 (nM)

[[record]]
compound = "CCc1nn(C)c2c1C(c1ccc(Cl)cc1)N(c1cc(OC)c3nnc(C)n3c1)C2=O (stereo not shown)"
unit_tag = "nM"
measured = 130

[[record]]
compound = "COc1ncc(-n2nc3c(c2C)C(c2ccc(Cl)cc2)N(c2cc(C)c(=O)n(C)c2)C3=O)c(OC)n1 (stereo not shown)"
unit_tag = "nM"
measured = 69

[[record]]
compound = "COCc1nn(C2CC2)c2c1[C@@H](c1ccc(Cl)cc1)N(c1cc(C)c(=O)n(C)c1)C2=O"
unit_tag = "nM"
measured = 39

[[record]]
compound = "Cc1c2c(nn1C)C(=O)N(c1ccc(=O)n(C)c1)C2c1ccc(Cl)cc1 (stereo not shown)"
unit_tag = "nM"
measured = 580

[[record]]
compound = "Cc1nn(C(C)C)c2c1C(c1ccc(Cl)cc1)N(c1cc(Cl)c(=O)n(C)c1)C2=O (stereo not shown)"
unit_tag = "nM"
measured = 160

[[record]]
compound = "Cc1cc(N2C(=O)c3nn(C)cc3[C@H]2c2ccc(Cl)cc2)cn(C)c1=O"
unit_tag = "nM"
measured = 100

[[record]]
compound = "Cc1nn(C2CC2)c2c1C(c1ccc(C(F)(F)F)cc1)N(c1cc(C)c(=O)n(C)c1)C2=O (stereo not shown)"
unit_tag = "nM"
measured = 88

[[record]]
compound = "Cc1cc(N2C(=O)c3nn(C(C)C)c(C)c3C2c2ccc(F)cc2F)cn2c(C)nnc12 (stereo not shown)"
unit_tag = "nM"
measured = 72

[[record]]
compound = "Cn1cc2c(n1)C(=O)N(c1cc(Cl)c(=O)n(C)c1)C2c1ccc(Cl)cc1 (stereo not shown)"
unit_tag = "nM"
measured = 150

[[record]]
compound = "COc1ncc(-n2nc3c(c2C(C)C)C(c2ccc(Cl)cc2)N(c2ccc4onc(C)c4c2)C3=O)c(OC)n1 (stereo not shown)"
unit_tag = "nM"
measured = 480

[[record]]
compound = "COc1ncccc1-n1nc(C)c2c1C(=O)N(c1cc(C)c3nnc(C)n3c1)C2c1ccc(Cl)cc1 (stereo not shown)"
unit_tag = "nM"
measured = 43

[[record]]
compound = "Cn1cc(N2C(=O)c3c(c(C(F)(F)F)nn3C3CC3)C2c2ccc(Cl)cc2)cc(Cl)c1=O (stereo not shown)"
unit_tag = "nM"
measured = 170

[[record]]
compound = "Cc1cc(N2C(=O)c3nn(C4CC4)c(C)c3C2c2ccc(Cl)cc2)cn2c(C)nnc12 (stereo not shown)"
unit_tag = "nM"
measured = 45

[[record]]
compound = "CCn1nc2c(c1C)C(c1ccc(Cl)cc1F)N(c1cc(C)c(=O)n(C)c1)C2=O (stereo not shown)"
unit_tag = "nM"
measured = 140

[[record]]
compound = "CCn1nc(C)c2c1C(=O)N(c1cc(C)c3nnc(C)n3c1)[C@@H]2c1ccc(F)cc1F"
unit_tag = "nM"
measured = 69

[[record]]
compound = "Cc1ncccc1-n1nc2c(c1C)C(c1ccc(Cl)cc1)N(c1cc(C)c(=O)n(C)c1)C2=O (stereo not shown)"
unit_tag = "nM"
measured = 120


Recorded values, source patent US8975417B2.
